Data provenance: patent US8017611B2

Molecular target: recombinant Axl tyrosine kinase (Homo sapiens)
Construct: encompassing amino acids 473 to 894 of Axl; GST (N); made in house; host or cells: SF126 insect cells
Sequence (P30530 473-894): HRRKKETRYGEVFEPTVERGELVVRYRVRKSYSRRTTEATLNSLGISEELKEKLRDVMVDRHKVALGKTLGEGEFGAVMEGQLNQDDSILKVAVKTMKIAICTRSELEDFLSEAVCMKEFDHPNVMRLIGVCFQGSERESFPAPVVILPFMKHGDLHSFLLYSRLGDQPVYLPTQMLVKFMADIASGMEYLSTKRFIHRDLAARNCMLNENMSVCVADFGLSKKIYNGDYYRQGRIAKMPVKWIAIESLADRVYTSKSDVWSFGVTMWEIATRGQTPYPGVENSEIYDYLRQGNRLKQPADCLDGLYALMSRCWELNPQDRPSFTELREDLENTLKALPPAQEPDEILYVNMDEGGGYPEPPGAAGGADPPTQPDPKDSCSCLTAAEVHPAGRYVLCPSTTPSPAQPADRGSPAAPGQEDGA
Experiment: In vitro Axl kinase assay (AlphaScreen), Test (a)
Assay type: biochemical
Details: test compound at 1 μM; first value quoted
# % Axl tyrosine kinase inhibition at 1 μM concentration annotations

Answered cases to consult:
>  <compound>
CN(C)CCNC(=O)c1ccc(-c2cnc(N)c(-c3nc4ccccc4o3)c2)cc1 [Example 2.41]

>  <study.system>
recombinant Axl tyrosine kinase (Homo sapiens)

>  <value.observed>
99.9%

$$$$
>  <compound>
CCOc1nn(C2CCNCC2)cc1-c1cnc(N)c(-c2nc3ccccc3o2)c1 [Example 25.3]

>  <study.system>
recombinant Axl tyrosine kinase (Homo sapiens)

>  <value.observed>
100.0%

$$$$
>  <compound>
Nc1ncc(-c2cccc(N3CCCCC3)c2)cc1-c1nc2ncccc2o1 [Example 10A.17]

>  <study.system>
recombinant Axl tyrosine kinase (Homo sapiens)

>  <value.observed>
40.3%

$$$$
>  <compound>
Nc1ncc(-c2ccc(C(=O)NCCN3CCOCC3)cc2)cc1-c1nc2cccnc2o1 [Example 45A.51]

>  <study.system>
recombinant Axl tyrosine kinase (Homo sapiens)

>  <value.observed>
98.5%

$$$$

Q. If you can, please state the reported % Axl tyrosine kinase inhibition at 1 μM concentration value of COc1cc(-c2cnc(N)c(-c3nc4ncccc4o3)c2)ccc1OCCCN [Example 43C.27] .
A. 99.4%

Q. Continue with Nc1ncc(-c2ccc(C(=O)NCCN3CCCCC3)cc2)cc1-c1nc2cccnc2o1 [Example 45A.56]
A. 98.9%

Q. Query COc1cc(-c2cnc(N)c(-c3nc4ncccc4o3)c2)ccc1OCCCN1CC(C)NC(C)C1 (centres unmarked) [Example 43C.34] next
A. 99.1%

Q. Next compound: CN1CCC(n2cc(-c3cnc(N)c(-c4nc5ccccc5o4)c3)cn2)C1 (centres unmarked) [Example 41.9]
A. 100.0%
